# Test Protocol: Snapshot (5 h) PK study with/without EA and 1-ABT
# Type: in vivo
# Setup Conditions: male, CD-1, mouse, plasma, ip, 10 mg/kg, CD-1 mice, 10 mg/kg i.p., no co-treatment
Outcome Measure: Cmax

| Query Smiles | Result |
| --- | --- |
| CCC(=O)Nc1cc(Nc2cc(NC3CC3)n3ncc(C#N)c3n2)c(F)cc1N1CCC[C@H](NC)C1 | 3.19 µM |
